- system: Neu5Ac(a2-3)Gal(b1-3)[Fuc(a1-4)]GlcNAc(b1-3)Gal(b1-3)[Fuc(a1-4)]GlcNAc
- procedureDetails: glycan array binding signal (z-score within array); higher = stronger binding
- experimentalParameters: glycan notation: IUPAC condensed, linker removed
This is one part of a sample in which the strongest signals are shown more often than they occur.
property: glycan array binding signal (z-score)
In your answer, state the number alone without any accompanying words.

Inquiry: GET /values?readout=glycan array binding signal (z-score)&item= Epa12 (Candida glabrata) (protein) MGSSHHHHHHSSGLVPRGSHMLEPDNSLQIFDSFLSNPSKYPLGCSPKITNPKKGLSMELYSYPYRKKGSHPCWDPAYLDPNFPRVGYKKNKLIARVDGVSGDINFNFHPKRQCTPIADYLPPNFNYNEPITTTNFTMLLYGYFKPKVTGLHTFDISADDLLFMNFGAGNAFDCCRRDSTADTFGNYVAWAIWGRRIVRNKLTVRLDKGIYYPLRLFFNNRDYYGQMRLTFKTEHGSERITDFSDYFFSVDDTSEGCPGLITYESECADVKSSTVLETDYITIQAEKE
Reply text: -0.342
